TEST_SYSTEM: SARM1 (Homo sapiens, UniProt Q6SZW1)
Construct: made in house; host or cells: NRK1-HEK293T cells, transient transfection; clarified lysate used without purification
Sequence (Q6SZW1 with tags, fused parts or gaps): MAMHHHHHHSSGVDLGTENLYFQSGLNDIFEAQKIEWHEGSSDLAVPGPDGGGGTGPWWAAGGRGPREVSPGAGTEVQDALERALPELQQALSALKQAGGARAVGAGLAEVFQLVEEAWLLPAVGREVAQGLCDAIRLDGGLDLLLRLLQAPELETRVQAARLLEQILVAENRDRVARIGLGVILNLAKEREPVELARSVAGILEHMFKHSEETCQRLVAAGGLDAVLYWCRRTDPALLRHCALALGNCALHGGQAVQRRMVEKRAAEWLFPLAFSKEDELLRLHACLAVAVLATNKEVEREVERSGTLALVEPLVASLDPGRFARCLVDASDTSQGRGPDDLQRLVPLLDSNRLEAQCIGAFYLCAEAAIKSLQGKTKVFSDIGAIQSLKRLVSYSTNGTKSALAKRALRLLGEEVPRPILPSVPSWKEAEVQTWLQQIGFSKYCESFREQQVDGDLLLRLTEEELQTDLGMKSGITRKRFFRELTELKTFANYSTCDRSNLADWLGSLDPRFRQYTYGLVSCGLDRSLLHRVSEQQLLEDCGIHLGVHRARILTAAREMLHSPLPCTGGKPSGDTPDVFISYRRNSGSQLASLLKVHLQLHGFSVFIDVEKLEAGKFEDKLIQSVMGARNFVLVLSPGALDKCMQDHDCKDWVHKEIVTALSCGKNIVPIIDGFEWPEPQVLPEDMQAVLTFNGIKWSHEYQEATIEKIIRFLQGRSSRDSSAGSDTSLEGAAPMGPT
METHOD_DESCRIPTION: ARM-SAM-TIR SARM1 IC50 assay (NADase activity, NAD+ cleavage)
Assay type: biochemical
MEASUREMENT_PARAMETERS: ARM-SAM-TIR lysate 5 μg/mL, 2 h pre-incubation, 5 μM NAD+, 2 hr room temperature, RapidFire mass spectrometry of NAD+ and ADPR
READOUT_KIND: IC50

Below: 8 compounds and their reported IC50.
// field: IC50; key: O=C(CCc1ccc(Cl)nc1)N1CCCc2c(-c3ccnnc3)n[nH]c21 [Example 10] ; value = < 100 nM

Item: O=C(CCc1cnc(Cl)c(F)c1)N1CCCc2c(-c3ccncc3)n[nH]c21 [Example 11] | IC50: < 100 nM

Entry under test: O=C(CCc1cnc(Cl)c(F)c1)N1CCCc2c(-c3ccnnc3)n[nH]c21 [Example 12] . Its IC50 was < 100 nM

Lab book: IC50 of O=C(NCc1ccc(Cl)cc1)N1CCCc2c(-c3ccncc3)n[nH]c21 [Example 5] noted as 1010 to 5000 nM

Looking up O=C(CCc1ccc(Cl)nc1)N1CCC(O)c2c(-c3ccncc3)n[nH]c21 (centres unmarked) [Example 20] , I see its IC50 listed as 100 to 1000 nM

Record O=C1CCN(C(=O)CCc2ccc(Cl)nc2)c2[nH]nc(-c3ccncc3)c21 [Example 18] . Reported IC50: 100 to 1000 nM

The measured IC50 associated with O=C(CCc1ccc(Cl)cc1)N1CCOc2c(-c3ccncc3)n[nH]c21 [Example 3] reads < 100 nM

Query O=C1CCN(C(=O)CCc2ccc(Cl)cc2)c2[nH]nc(-c3ccncc3)c21 [Example 17] yields IC50 of < 100 nM

Next:
Kindly note the recorded IC50 for N#Cc1ccc(CCC(=O)N2CCCc3c(-c4ccnnc4)n[nH]c32)cc1 [Example 9] , which is < 100 nM

Measured IC50, N#Cc1ccc(CCC(=O)N2CCCc3c(-c4ccncc4)n[nH]c32)cc1 [Example 8] : 100 to 1000 nM
